- system_tested: PI3K-alpha (Homo sapiens)
- Sequence (P42336 whole entry, species assumed): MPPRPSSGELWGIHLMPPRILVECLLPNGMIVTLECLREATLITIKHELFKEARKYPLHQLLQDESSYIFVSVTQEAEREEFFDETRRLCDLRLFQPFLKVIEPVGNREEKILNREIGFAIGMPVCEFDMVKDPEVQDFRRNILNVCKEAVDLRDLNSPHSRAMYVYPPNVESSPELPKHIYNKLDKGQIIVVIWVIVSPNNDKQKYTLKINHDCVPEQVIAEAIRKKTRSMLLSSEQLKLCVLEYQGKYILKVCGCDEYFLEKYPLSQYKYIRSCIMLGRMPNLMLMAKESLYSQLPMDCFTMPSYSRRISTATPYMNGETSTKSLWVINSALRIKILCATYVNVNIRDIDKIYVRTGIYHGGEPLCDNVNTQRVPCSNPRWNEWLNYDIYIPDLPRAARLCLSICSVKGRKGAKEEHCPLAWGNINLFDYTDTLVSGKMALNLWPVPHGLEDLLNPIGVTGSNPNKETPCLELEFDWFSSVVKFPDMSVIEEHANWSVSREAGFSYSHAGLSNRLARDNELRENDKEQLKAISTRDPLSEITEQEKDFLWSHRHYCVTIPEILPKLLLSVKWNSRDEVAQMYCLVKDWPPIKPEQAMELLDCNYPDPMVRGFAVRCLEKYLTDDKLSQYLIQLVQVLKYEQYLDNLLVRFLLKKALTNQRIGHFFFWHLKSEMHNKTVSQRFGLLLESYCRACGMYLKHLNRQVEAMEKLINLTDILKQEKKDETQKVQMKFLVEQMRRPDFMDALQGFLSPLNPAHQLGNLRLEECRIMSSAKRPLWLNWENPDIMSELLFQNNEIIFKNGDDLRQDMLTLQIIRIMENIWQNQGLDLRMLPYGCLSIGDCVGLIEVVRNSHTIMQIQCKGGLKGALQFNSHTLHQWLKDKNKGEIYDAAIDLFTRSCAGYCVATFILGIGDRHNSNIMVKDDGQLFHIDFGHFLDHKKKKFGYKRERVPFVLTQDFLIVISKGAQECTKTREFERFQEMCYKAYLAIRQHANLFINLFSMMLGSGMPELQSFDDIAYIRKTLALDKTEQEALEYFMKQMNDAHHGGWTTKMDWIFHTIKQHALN
- Sequence (P27986 whole entry partner, species assumed): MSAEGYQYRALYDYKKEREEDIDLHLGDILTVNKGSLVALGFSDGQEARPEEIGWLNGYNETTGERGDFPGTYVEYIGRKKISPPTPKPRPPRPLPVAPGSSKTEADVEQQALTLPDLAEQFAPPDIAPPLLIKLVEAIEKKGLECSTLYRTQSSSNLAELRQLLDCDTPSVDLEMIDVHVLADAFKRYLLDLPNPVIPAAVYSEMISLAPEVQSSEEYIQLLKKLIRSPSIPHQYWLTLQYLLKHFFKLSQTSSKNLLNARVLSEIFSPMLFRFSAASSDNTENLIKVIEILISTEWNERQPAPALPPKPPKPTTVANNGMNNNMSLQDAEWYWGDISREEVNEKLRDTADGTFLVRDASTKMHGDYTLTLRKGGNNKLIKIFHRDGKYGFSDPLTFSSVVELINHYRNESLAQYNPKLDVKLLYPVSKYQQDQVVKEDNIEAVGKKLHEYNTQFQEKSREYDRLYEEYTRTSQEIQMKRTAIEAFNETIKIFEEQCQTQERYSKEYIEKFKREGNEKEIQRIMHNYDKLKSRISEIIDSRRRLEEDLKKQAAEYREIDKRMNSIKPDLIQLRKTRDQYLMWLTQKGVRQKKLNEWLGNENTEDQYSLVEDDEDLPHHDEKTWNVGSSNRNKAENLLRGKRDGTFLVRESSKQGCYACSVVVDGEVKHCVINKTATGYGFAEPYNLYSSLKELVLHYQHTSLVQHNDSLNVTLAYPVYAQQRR
- assay_remarks: PI3K-alpha fluorescence polarization assay
- Format: biochemical
- protocol_conditions: read-out: PI3Kα Avg. IC50
IC50: recorded values
endpoint_label: IC50 (nM)

[
  {
    "smiles_data": "CNCCn1c(-c2c(C)nn(C)c2C)c(/C=C2\\Oc3ccc(NC(=O)NC)cc3C2=O)c2cc(OC)ccc21",
    "measurement_qualifier": "=",
    "observed": 10.5
  },
  {
    "smiles_data": "Cc1[nH]c2ccc([N+](=O)[O-])cc2c1/C=C1\\Oc2ccccc2C1=O",
    "measurement_qualifier": ">",
    "observed": 10000
  },
  {
    "smiles_data": "O=C1/C(=C/c2cn(CCO)c3cccc(-c4ccccc4)c23)Oc2cc(O)cc(O)c21",
    "measurement_qualifier": "=",
    "observed": 1200
  },
  {
    "smiles_data": "CCNC(=O)Nc1ccc2c(c1)C(=O)/C(=C/c1cn(C)c3cccc(-c4ccccc4)c13)O2",
    "measurement_qualifier": ">",
    "observed": 10000
  },
  {
    "smiles_data": "O=C1C(=Cc2c[nH]c3ccc(F)cc23)Oc2cc(O)cc(O)c21",
    "measurement_qualifier": "=",
    "observed": 1040
  },
  {
    "smiles_data": "O=C1C(=Cc2c(-c3cccc(O)c3)[nH]c3ccccc23)Oc2cc(O)cc(O)c21",
    "measurement_qualifier": "=",
    "observed": 479
  },
  {
    "smiles_data": "Cn1c(-c2ccccc2)c(/C=C2\\Oc3cc(O)cc(O)c3C2=O)c2c(C#N)cccc21",
    "measurement_qualifier": "=",
    "observed": 1600
  },
  {
    "smiles_data": "COc1cc(-c2ccncc2)c2[nH]cc(/C=C3\\Oc4cc(O)ccc4C3=O)c2c1",
    "measurement_qualifier": "=",
    "observed": 298
  },
  {
    "smiles_data": "CNC(=O)Nc1ccc2c(c1)C(=O)/C(=C/c1c(-c3ccccc3)n(CCN3CCN(C)CC3)c3ccc(OC)cc13)O2",
    "measurement_qualifier": "=",
    "observed": 1.25
  },
  {
    "smiles_data": "COc1ccc2[nH]c(C(=O)N3CCN(C)CC3)c(/C=C3\\Oc4cc(O)cc(O)c4C3=O)c2c1",
    "measurement_qualifier": "=",
    "observed": 4
  },
  {
    "smiles_data": "CNCCNC(=O)c1ccc(NC(=O)Nc2ccc3c(c2)C(=O)/C(=C/c2c(C)n(CCN4CCN(C)CC4)c4ccc(OC)cc24)O3)cc1",
    "measurement_qualifier": "=",
    "observed": 0.6
  },
  {
    "smiles_data": "CCn1c(C)c(/C=C2\\Oc3ccc(NC(=O)Nc4ccc(OCCCN(C)C)cc4)cc3C2=O)c2cc(OC)ccc21",
    "measurement_qualifier": "=",
    "observed": 1.5
  },
  {
    "smiles_data": "Cc1ccc2c(c1)C(=O)C(=Cc1c(-c3ccc4ccccc4c3)[nH]c3ccccc13)S2",
    "measurement_qualifier": "=",
    "observed": 12000
  },
  {
    "smiles_data": "COc1ccc2c(c1)c(/C=C1\\Oc3cc(O)cc(O)c3C1=O)c(-c1cnn(C)c1)n2CC(=O)N(C)C",
    "measurement_qualifier": "=",
    "observed": 12.5
  },
  {
    "smiles_data": "O=C1/C(=C/c2c(-c3ccc(F)cc3)[nH]c3ccccc23)Oc2ccccc21",
    "measurement_qualifier": "=",
    "observed": 1980
  }
]
